Tested on: Plasmodium berghei
METHOD DESCRIPTION: Screen against P. berghei liver stage (PbLuc), transformed with Luciferase, at 10uM
Format: functional, HepG2
CONDITION DESCRIPTION: tested at 10 uM
In all, about 69,000 compounds went through this assay and about 8,600 (12%) showed an effect of 50% or more. What follows is part of a selection rich in strong results, with near analogues and random picks from the rest.
Item-by-item account of INHIBITION

# COMPOUND, UNIT OF MEASURE, INHIBITION
data = [
    ("COC[C@]1(O)CCN(Cc2ccc(N(C)C)nc2)CC1(C)C", "%", 22.6),
    ("CC1(C)COCCN1C(=O)Cc1cc(Cl)c2c(c1)OCCO2", "%", -117),
    ("O=S(=O)(c1cn[nH]c1)N1CCC(O)(CN2CCC(F)(F)CC2)C1 (stereo not given)", "%", -5.452),
    ("CC(C)(NCCCOc1ccc(C#N)cc1)c1nccs1", "%", 53.8),
    ("CCn1ccnc1CN1CCCN(C(=O)c2scnc2C)CC1", "%", 13.64),
    ("CC1CN(c2ccc(NC(=O)Cn3cccn3)cc2)CCO1 (stereo not given)", "%", 16.5),
    ("N#Cc1ccc(NCc2cccnc2N2CCC(C(N)=O)CC2)cn1", "%", 57.3),
    ("CCc1nccn1CC(=O)Nc1cccc(C(=O)OC)c1", "%", -10.9),
    ("COCCN1Cc2ccccc2C2(CCN(S(C)(=O)=O)CC2)C1", "%", -21.1),
    ("N#Cc1cccnc1NCc1cccnc1N1CCC(C(N)=O)CC1", "%", -0.182),
    ("CC(C)c1noc(CN2CCN(C(=O)OC(C)(C)C)C(C)C2)n1 (stereo not given)", "%", 33.6),
    ("Cc1ccnn1CCC(=O)N1CCN(C2CCc3ccccc3C2)CC1 (stereo not given)", "%", -5.08),
    ("COCc1ccccc1CNCc1c(C(C)C)nn(C)c1N(C)C", "%", 20.85),
    ("CCc1nccn1CC(=O)Nc1cccc(N2CCCC2)c1", "%", 74.55),
    ("CCc1nccn1CC(=O)N1CCN(C2CCc3ccccc3C2)CC1 (stereo not given)", "%", 57.9),
    ("Cc1csc(C(C)(C)NCCNS(C)(=O)=O)n1", "%", -1.75),
    ("CCCNC(=O)NC(=O)CN1CCN(Cc2nccn2CC)CC1", "%", 5.308),
    ("N#Cc1ccc(OCCNCCn2cccn2)cc1", "%", 27.6),
    ("CCc1nccn1CC(=O)Nc1cccc(C(=O)N(C)C)c1", "%", 0.0996),
    ("Cc1csc(C(C)(C)NCCOc2ccc(CC#N)cc2)n1", "%", 58.1),
    ("CC(C)(NCCOc1ccc(CC#N)cc1)c1nccs1", "%", -6.34),
    ("CC1CCN(c2ccc(NC(=O)CCn3cccn3)cc2)CC1", "%", 11.3),
    ("N#Cc1cccnc1NCc1cccnc1N1CCCCC1", "%", 51.7),
    ("O=C(Cn1cccn1)Nc1ccc(N2CCCCC2)cc1", "%", 50.2),
    ("CC(NCC(=O)Nc1ccc(N2CCCCCC2)cc1)c1cccs1 (stereo not given)", "%", 64.9),
]
